# Target system: human steroid 5-α-reductase (Homo sapiens)
# Construct: Frozen human prostates were thawed and minced into small pieces; from tissue; host or cells: hyperplastic human prostate, washed 140,000×g particulate fraction
# Sequence (P31213 whole entry): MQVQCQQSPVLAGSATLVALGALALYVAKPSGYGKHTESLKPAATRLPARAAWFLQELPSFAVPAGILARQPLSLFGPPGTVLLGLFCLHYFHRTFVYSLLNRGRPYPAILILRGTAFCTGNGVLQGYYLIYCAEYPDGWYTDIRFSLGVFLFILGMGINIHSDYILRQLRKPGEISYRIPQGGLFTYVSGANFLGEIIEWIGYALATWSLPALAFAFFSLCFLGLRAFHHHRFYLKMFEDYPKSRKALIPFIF
# Protocol: inhibition of human steroid 5-α-reductase using tissue from hyperplastic human prostates
# Type: biochemical
pKi: −log10 of the molar value.
Observation type: pKi

| Compound | Reading |
| --- | --- |
| CC(C)N(C(=O)[C@H]1CC[C@H]2[C@@H]3CC[C@H]4CC([N+](=O)[O-])=CC[C@]4(C)[C@H]3CC[C@]12C)C(C)C [2-ene analogue] | 6.60 |
